Data provenance is PubChem BioAssay (NCI).

# System: MDA-MB-435 melanoma
# PROTOCOL DESCRIPTION: NCI-60 one-dose screen, 48 h
# APPLIED CONDITIONS: 10 µM unless noted
This is part of a sample that, as a whole, favours compounds with a hit. Of some 83,000 tested, about 20% had one in any assay. Active and inactive are the calls of the source. Rule for the calls: active = growth percent below 10; inactive = the rest.
Outcome field: choose from Yes (active), No (inactive)

C=C1CC[C@@H]2[C@]3(C)COC(c4cn[nH]c4-c4ccc(F)cc4)O[C@@H]3CC[C@@]2(C)[C@@H]1C/C=C1/C(=O)OCC1O (some centres not stated)    Yes

Ask | Please indicate how the test categorized CSc1ccccc1NC(=O)c1ccc2nn(/C(C#N)=C/c3ccccn3)nc2c1 .
Reply | Yes

Ask | Please indicate how the test categorized CCOC(=O)C1=C(N)N(c2ccccc2)C2=C(C(=O)CC(C)(C)C2)C1c1ccc([N+](=O)[O-])cc1 (configuration not stated) .
Reply | No
